target: Recombinant human his-tagged IGF R extracellular domain protein (human) (UniProt P08069); assay: SPR, Ab captured via anti-huIgG Fc, dissociation at pH 6
quantity: Kd (nM)
Write the answer as a number in nM, unit excluded.

stdin: Query (binder): VRDN-02063 (antibody, V domains shown) VH: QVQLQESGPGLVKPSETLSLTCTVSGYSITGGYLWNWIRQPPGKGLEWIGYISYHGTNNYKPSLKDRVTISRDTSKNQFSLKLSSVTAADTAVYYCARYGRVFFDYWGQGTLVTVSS VL: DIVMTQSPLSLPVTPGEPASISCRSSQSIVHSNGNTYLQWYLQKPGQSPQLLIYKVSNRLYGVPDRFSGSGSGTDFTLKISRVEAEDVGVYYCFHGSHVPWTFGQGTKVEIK ; field requested: Kd
stdout: 0.284

Now let's try a different one.
stdin: Query (binder): VRDN-02026 (antibody, V domains shown) VH: QVQLQESGPGLVKPSETLSLTCTVSGYSITGGYLWNWIRQPPGKGLEWIGYISYDGTNNYKPSLKDRVTISRDTSKNQFSLKLSSVTAADTAVYYCARYGRVFHDYWGQGTLVTVSS VL: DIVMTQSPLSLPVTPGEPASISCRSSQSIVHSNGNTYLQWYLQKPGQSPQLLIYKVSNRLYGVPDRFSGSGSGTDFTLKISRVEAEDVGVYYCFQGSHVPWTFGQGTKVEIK ; field requested: Kd
stdout: 1.64
